- Test Method Notes: Dimensions (size, PDI) of DNPs co-assembled from IAJDs and Luc-mRNA by DLS
- Type: physicochemical
- Experimental Setup: Table 17; DNPs used in vivo, IAJD 4 mg/mL, Luc-mRNA 0.10 mg/mL, acetate pH 4.0
Measured Property: Size (d, nm)

Known results for compounds:
{"columns": ["Compound", "Size (d, nm)"],
 "data": [
  ["CCCCCCCCCCCOc1cc(COC(=O)CCCN2CCN(CCO)CC2)cc(OCCCCCCCCCC)c1 [IAJD 115]", 123],
  ["CCCCCCCCCCCCCCCCCOc1cc(COC(=O)CCCN2CCN(CCO)CC2)cc(OCCCCCCCCCCCCCCC)c1 [IAJD 152]", 281],
  ["CCCCCCCCCCCOc1cc(COC(=O)CCCN2CCN(CCO)CC2)cc(OCCCCCCCCC)c1 [IAJD 122]", 215],
  ["CCCCCCCCCCCCCCCCOc1cc(COC(=O)CCCN2CCN(C)CC2)cc(OCCCCCCCCCCCCC)c1 [IAJD 173]", 139]
]}

1 = CCCCCCCCCCCCOc1cc(COC(=O)CCCN2CCN(CCO)CC2)cc(OCCCCCCCCCCC)c1 [IAJD 124]
2 = CCCCCCCCCCCCCCCOc1cc(COC(=O)CCCN2CCN(CCO)CC2)cc(OCC(CC)CCCC)c1 (centres unmarked) [IAJD 136]
3 = CCCCCCCCCCCCCCCCCCOc1cc(COC(=O)CCCN2CCN(CCO)CC2)cc(OCCCCCCCCCCCCCCC)c1 [IAJD 154]
Challenge: Rank the items in ascending order with respect to Size (d, nm). Hello, could you send the labels back in the order asked? Thank you.
Response given: 2, 1, 3
